measuredTarget: T1, recombinant human CD3ε-ECD His protein (human, UniProt P07766 23-126)
T1 construct: extracellular domain; also called human CD3ε-His; CD3ε antigen protein; not shown: His tag
T1 sequence (P07766 23-126): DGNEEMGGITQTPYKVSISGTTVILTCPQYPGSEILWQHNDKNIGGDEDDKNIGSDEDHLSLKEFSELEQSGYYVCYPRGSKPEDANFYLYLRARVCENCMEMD
procedureText: SPR (Biacore), antibody captured on Protein A chip
# koff values compiled below
valueKind: koff (s⁻¹)

1. 7-35.6 human-murine chimeric antibody (antibody, human IgG1, lambda, V domains shown, Human IgG1 chimera) VH: EVQLVESGGGLVQPKGSLKLSCAASGFTFNTYAMNWVRQAPGKGLEWVGRIRSKINNYATYYGDSVKDRFTISRDDSQSMFYLQMNNLKTEDTAMYYCVIHENYGSISWFAYWGQGTLVTVSA VL: QAVVTQESTLTTSPGETVTLTCRSSTGAVTTSNYANWVQEKPDHLFTGLIGGTNNRAPGVPARFSGSLIGDKAALTITGAQTEDEAIYFCALWYSNHWVFGGGTKLTVLG | 0.000261
2. 5-7.13 human-murine chimeric antibody (antibody, human IgG1, kappa, V domains shown, Human IgG1 chimera) VH: QVQLQQPGTELVKPGASVKLSCKASGYTFTSYWVHWVKQRPGQGLEWIGNINPSDGVTNYNEKFKSRATLTVDKSSSTAYMQLSSLTSEDSAVYYCTRDAYGQYYFDDWGQGTTLTVSS VL: DIVMSQSPSSLVVSAGEKVTMSCKSSQSLLNSRTRKNYLAWYQQKPGQSPKLLIYWASVRDSGVPDRFTGSGSGTDFTLTISNVQAEDLAVYYCIQSYYLRTFGGGTILEIKR | 0.00027
3. 5-40.21 human-murine chimeric antibody (antibody, human IgG1, kappa, V domains shown, Human IgG1 chimera) VH: QVQLQQPGSELVRPGASVKLSCKASGYTFTSYWMHWVKQRPGQGLEWIGNTYPGSGSTNYDEKFKSKATLTVDSSSSTAYMQLSSLTSEDSAVYYCTRDRYGVYYFDYWGQGTTLTVSS VL: DIVMSQSPSSLAVSAGEKVTMSCKSSQSLLNSRTRKNYLAWYQQKPGQSPKLLIYWASTRESGVPDRFSGSGSGTDFTLTISSVQAEDLAVYYCTQSYNLRTFGGGTKLEIKR | 0.000379
